experiment: chemical genetic growth profiling, strain panel (AID 1159580);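 also: tested at 20 µM; growth read once vehicle control cultures reached saturation at 30 °C; 1 = growth at the plate median or of vehicle wells; lower values mean less growth of the strain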; conditions: S. cerevisiae deletion strains, growth OD, locus YLR371W, strain rom2, hits give low values
Out of some 5,500 compounds screened, about 2,000 (36%) were called active. Another 18% or so got no clear call; they are omitted. The list shows a part of the results.

COMPOUND: CC(=O)N[C@@H]1[C@@H](C(O)[C@H](O)CO)O[C@](O)(C(=O)O)C[C@@H]1O (some centres undefined)
normalized growth: 1.01
//
COMPOUND: Nc1nc2c(c(=O)[nH]1)N(C=O)C(CNc1ccc(C(=O)N[C@@H](CCC(=O)O)C(=O)O)cc1)CN2 (some centres undefined)
normalized growth: 0.975
//
COMPOUND: CC[C@]12CCCN3CCc4c(n(c5ccccc45)C(=O)C1)[C@@H]32
normalized growth: 0.983
//
COMPOUND: CC[C@]12CCCN3CCc4c(n(c5ccccc45)[C@](O)(C(=O)OC)C1)[C@@H]32
normalized growth: 0.987

* * *

normalized growth values by entry
assay: chemical genetic growth profiling, strain panel (AID 1159580);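 also: tested at 20 µM; growth read once vehicle control cultures reached saturation at 30 °C; 1 = growth at the plate median or of vehicle wells; lower values mean less growth of the strain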; conditions: S. cerevisiae deletion strains, growth OD, locus YJR075W, strain HOC1, hits give low values
The whole screen tested about 5,500 compounds, of which about 2,000 (36%) were called active. Roughly 18% stayed inconclusive and do not appear here. This is one part of the list.
MEASUREMENT_TYPE: normalized growth

COMPOUND: O=C(O)CNCP(=O)(O)O
READOUT_VALUE: 1.01 (inactive)
--
COMPOUND: COc1cc(C(=O)O)cc(OC)c1O
READOUT_VALUE: 0.997 (inactive)
--
COMPOUND: C[C@](N)(Cc1ccc(O)c(O)c1)C(=O)O
READOUT_VALUE: 1.01 (inactive)
--
COMPOUND: COc1ccc2c(c1O)-c1cccc3c1[C@@H](C2)N(C)CC3
READOUT_VALUE: 1 (inactive)
--
COMPOUND: CC(C)CC(NP(=O)(O)O[C@@H]1O[C@@H](C)[C@H](O)[C@@H](O)[C@H]1O)C(=O)NC(Cc1c[nH]c2ccccc12)C(=O)O (stereo partly specified)
READOUT_VALUE: 1.03 (inactive)
--
COMPOUND: CC(C)(C)c1nc(N)sc1Br
READOUT_VALUE: 1.01 (inactive)
--
COMPOUND: CC(=O)OCC(=O)[C@@]12OC(C)(C)O[C@@H]1CC1C3C[C@H](F)C4=CC(=O)C=C[C@]4(C)[C@@]3(F)[C@@H](O)C[C@@]12C (stereo partly specified)
READOUT_VALUE: 1 (inactive)
--
COMPOUND: COc1ccc(/C=C/c2cc(O)cc(O[C@@H]3O[C@H](CO)[C@@H](O)[C@H](O)[C@H]3O)c2)cc1O
READOUT_VALUE: 0.973 (inactive)
--
COMPOUND: CCCN1CCO[C@@H]2c3cc(O)ccc3OC[C@H]21
READOUT_VALUE: 0.993 (inactive)
--
COMPOUND: COc1ccccc1N1CCN(Cc2ccc(F)cc2)CC1
READOUT_VALUE: 0.983 (inactive)
--
COMPOUND: COC(=O)c1cc(OC)c(OC)cc1NS(=O)(=O)c1ccc(C)cc1
READOUT_VALUE: 0.991 (inactive)
--
COMPOUND: CO[C@@H]1[C@@H](O[C@@H]2O[C@H](C)[C@@H](O[C@H]3C[C@@](C)(O)[C@H](O)[C@H](C)O3)[C@H](N(C)C)[C@H]2O)[C@@H](CC=O)C[C@@H](C)[C@@H](O[C@H]2CC[C@H](N(C)C)[C@@H](C)O2)/C=C/C=C/C[C@H](C)OC(=O)C[C@H]1O
READOUT_VALUE: 0.991 (inactive)
--
COMPOUND: c1cc2c(cc1[C@H]1OC[C@H]3[C@@H]1CO[C@H]3c1ccc3c(c1)OCO3)OCO2
READOUT_VALUE: 0.914 (inactive)
--
COMPOUND: CC1=C(/C=C/C(C)=C/C=C/C(C)=C/C(=O)O)C(C)(C)CCC1
READOUT_VALUE: 1.01 (inactive)
--
COMPOUND: c1ccc(CSC2=NCCCN2)cc1
READOUT_VALUE: 0.997 (inactive)
--
COMPOUND: Oc1ccc2c3c1O[C@H]1c4oc5ccccc5c4C[C@@]4(O)C(C2)N(CC2CC2)CCC314 (stereo partly specified)
READOUT_VALUE: 0.99 (inactive)
--
COMPOUND: ON(Cc1c(F)cccc1Cl)Cc1c(F)cccc1Cl
READOUT_VALUE: 0.986 (inactive)
--
COMPOUND: CC(COc1ccccc1)N(CCCl)Cc1ccccc1 (stereo unspecified)
READOUT_VALUE: 1.02 (inactive)
--
COMPOUND: CCN(CCCl)Cc1ccccc1Br
READOUT_VALUE: 0.994 (inactive)
--
COMPOUND: C=CCc1cc(OC)c2c(c1OC)OCO2
READOUT_VALUE: 0.928 (inactive)
--
COMPOUND: COC(=O)c1ccc(S(=O)(=O)NCc2ccccc2)n1C
READOUT_VALUE: 1.05 (inactive)
--
COMPOUND: CC12C(=O)OC(=O)C1(C)C1CCC2O1 (stereo unspecified)
READOUT_VALUE: 1.04 (inactive)
--
COMPOUND: COc1cc2c(cc1C(F)(F)F)N(C(=O)Nc1cc(F)cc(-c3cccnc3)c1)CC2
READOUT_VALUE: 1.11 [resistant] (active)
--
COMPOUND: COc1cc(C(=O)O)c(O)c2c1OCO2
READOUT_VALUE: 1 (inactive)
--
COMPOUND: O=C(O)P(=O)(O)O
READOUT_VALUE: 0.926 (inactive)
--
COMPOUND: C[C@@H]1CC2C3CCC4=CC(=O)C=C[C@]4(C)[C@@]3(F)[C@@H](O)C[C@]2(C)[C@@]1(O)C(=O)COP(=O)(O)O (stereo partly specified)
READOUT_VALUE: 1.02 (inactive)
--
COMPOUND: COC(=O)c1ccc(C#Cc2ccccc2)o1
READOUT_VALUE: 0.875 (active)
--
COMPOUND: NC(=O)CCSCCC(N)=O
READOUT_VALUE: 1 (inactive)
--
COMPOUND: CC1CN(S(=O)(=O)c2cccc3cnccc23)CCN1 (stereo unspecified)
READOUT_VALUE: 0.996 (inactive)
--
COMPOUND: CCOC(=O)CC(=O)Nc1scc(C)c1C(=O)OCC
READOUT_VALUE: 0.951 (inactive)
--
COMPOUND: O=C(O)CCS(=O)(=O)/C=C/c1ccccc1
READOUT_VALUE: 1 (inactive)
--
COMPOUND: CCOP(=S)(OCC)Oc1ccc2c(C)c(Cl)c(=O)oc2c1
READOUT_VALUE: 0.945 (inactive)
--
COMPOUND: COS(C)(=O)=O
READOUT_VALUE: 1.01 (inactive)
--
COMPOUND: C/C(=N/NC1=NCCN1)c1ccc(F)cc1
READOUT_VALUE: 0.992 (inactive)
--
COMPOUND: Cc1cc(/C=N/NC(N)=S)c2c(C)ccc(C(C)C)cc1-2
READOUT_VALUE: 1.02 (inactive)
--
COMPOUND: O=S(=O)(c1cc(Br)c(Br)s1)N1CCCCC1
READOUT_VALUE: 1.01 (inactive)
--
COMPOUND: NC(=O)CI
READOUT_VALUE: 0.966 (inactive)
--
COMPOUND: CCn1cc(C(=O)O)c(=O)c2ccc(Cc3ccccc3)nc21
READOUT_VALUE: 1.02 (inactive)
--
COMPOUND: CC[C@@H]1[C@@H](O)N2C3C[C@H]1C1C(O)[C@]4(C[C@@H]12)c1ccccc1N(C)[C@@H]34 (stereo partly specified)
READOUT_VALUE: 0.986 (inactive)
--
COMPOUND: CC(C)COC(=O)OCN1C(=O)CN(CCN2CC(=O)N(COC(=O)OCC(C)C)C(=O)C2)CC1=O
READOUT_VALUE: 1.01 (inactive)
--
COMPOUND: NC(=O)CCC(N)C(=O)O (stereo unspecified)
READOUT_VALUE: 1.01 (inactive)
--
COMPOUND: CCCN1CCOC2c3cc(O)ccc3OCC21 (stereo unspecified)
READOUT_VALUE: 1.01 (inactive)
--
COMPOUND: CCOC(N)=O
READOUT_VALUE: 1.01 (inactive)
--
COMPOUND: CN1CCc2cc(O)cc3c2[C@H]1Cc1ccc(O)c(O)c1-3
READOUT_VALUE: 0.492 (active)
--
COMPOUND: CC(=O)O[C@H]1CC[C@@]2(C)C(=CCC3C2CC[C@]2(C)C(=O)CCC32)C1 (stereo partly specified)
READOUT_VALUE: 0.887 (inactive)
--
COMPOUND: O=C(O)CC(CC(=O)O)c1ccc(C(F)(F)F)cc1
READOUT_VALUE: 0.993 (inactive)
